Study the reported IC50 values for Tyrosine-protein kinase JAK1 (Homo sapiens, UniProt P23458) given below; they originate from different publications.
Answer in nM, number only, no unit symbol.

In the examples that follow, each entry is paired with its recorded IC50.
INSERT INTO assay_data (compound, measured_endpoint, unit_label, recorded_result) VALUES
  ('Cc1ccc(N(C)S(C)(=O)=O)c(CNc2nc(-c3cc(F)c(O)cc3CC(F)(F)F)cc3[nH]ncc23)c1', 'IC50', 'nM', 21.6),
  ('CCc1cc(O)c(F)cc1-c1cc2[nH]nc(C(=O)NC)c2c(NCc2c(F)cccc2N(C)S(C)(=O)=O)n1', 'IC50', 'nM', 1.7),
  ('CCCC(=O)NC12CC(n3cnc4cnc5[nH]ccc5c43)(C1)C2', 'IC50', 'nM', 58.7);

// compound O=S(=O)(CCC(F)(F)F)NC12CC(n3cnc4cnc5[nH]ccc5c43)(C1)C2 , assay Tyrosine-protein kinase JAK1 (Homo sapiens, UniProt P23458), IC50 value: 6.7

// compound CC(=O)N1CCN(Cc2ccc(-c3cccc4nc(NC(=O)C5CC5)nn34)cc2)CC1 , assay Tyrosine-protein kinase JAK1 (Homo sapiens, UniProt P23458), IC50 value: 334

// compound Cn1cc(Nc2ncc(Cl)c(NC3CC4CN(c5ccc(C#N)cn5)CC4C3)n2)cn1 (centres unmarked) , assay Tyrosine-protein kinase JAK1 (Homo sapiens, UniProt P23458), IC50 value: 0.4

// compound CN(c1ccnc2[nH]ccc12)[C@H]1C[C@@H]2CN(C(=O)CO)C[C@@H]2C1 , assay Tyrosine-protein kinase JAK1 (Homo sapiens, UniProt P23458), IC50 value: 96

----------
Study the reported pIC50 values for Tyrosine-protein kinase JAK1 (Homo sapiens) given below; they originate from different publications.
pIC50: −log10 of the molar value.

In the examples that follow, each entry is paired with its recorded pIC50.
INSERT INTO assay_data (smiles_input, recorded_result) VALUES
  ('N#CC[C@]1(n2cc(-c3ncnc4[nH]ccc34)cn2)C[C@H](N2CCC(Oc3cc(CCO)cc(C(F)(F)F)n3)CC2)C1', '> 8.00'),
  ('N#CC[C@]1(n2cc(-c3ncnc4[nH]ccc34)cn2)C[C@H](N2CCC(Oc3cc(CN4CCC[C@H]4CO)cc(C(F)(F)F)n3)CC2)C1', '> 8.00'),
  ('N#CCC1(n2cc(-c3ncnc4[nH]ccc34)cn2)CN(C2CCN(C(=O)Nc3ccccc3Cl)CC2)C1', '≥ 8.30');

With those in mind, consider the next compound.
// compound CC(C)COc1ccc2cc1COCCCCNC(=O)c1ccc(c([N+](=O)[O-])c1)-c1ccnc(n1)N2 , assay Tyrosine-protein kinase JAK1 (Homo sapiens), pIC50 value: 5.00 to 6.00

----------
Study the reported IC50 values for Tyrosine-protein kinase JAK1 (Homo sapiens, UniProt P23458) given below; they originate from different publications.

INSERT INTO results (compound, measured_endpoint, recorded_result) VALUES
  ('Cn1cc(-c2cc3nccn3c(-c3cnn(C(CC(N)=O)C4CC4)c3)n2)cn1 (stereo not shown)', 'IC50', '> 1000 nM'),
  ('CC1CCOCc2cc(ccc2OC2CC2)Nc2nccc(n2)-c2ccc(cc2[N+](=O)[O-])C(=O)NC1 (stereo not shown)', 'IC50', '1000 to 10000 nM');

In plain terms, Cc1cc(Nc2nccc(-c3ccc(NC(=O)[C@@H]4CC4(F)F)cc3)n2)cnc1C(N)=O has a documented IC50 of 7 nM

In plain terms, CC(C)COC(=O)NC12CC(n3cnc4cnc5[nH]ccc5c43)(C1)C2 has a documented IC50 of 165 nM

In plain terms, CCS(=O)(=O)N1CC(CC#N)(n2cc(-c3nc(Nc4cnn(CCC(=O)O)c4)nc4ccsc34)cn2)C1 has a documented IC50 of < 50 nM

In plain terms, CC1(C)CCNC(=O)c2ccc(c(N)c2)-c2ccnc(n2)Nc2ccc(OC3CC3)c(c2)COC1 has a documented IC50 of > 10000 nM

In plain terms, C#CCNc1nc(Nc2ccc3c(c2)NC[C@H](O)CO3)ncc1C(N)=O has a documented IC50 of < 10 nM

In plain terms, N#CCC(=O)N1CCC[C@@H](Nc2nc(Nc3ccc[nH]c3=O)nc(N3CCOCC3)c2F)C1 has a documented IC50 of < 100 nM

In plain terms, N#CCC1(n2cc(-c3nc(-c4cnn(C5COC5)c4)cc4nccn34)cn2)CN(CC(F)(F)F)C1 has a documented IC50 of 100 to 1000 nM

In plain terms, CC(C)Oc1ccc2cc1COc1ccc(cc1)NC(=O)c1ccc(c(N)c1)-c1ccnc(n1)N2 has a documented IC50 of 1000 to 10000 nM

In plain terms, CC[C@H](Cn1ccc2cnc(Nc3cnn(CC(=O)OCC4COC4)c3)nc21)C(C)C has a documented IC50 of < 100 nM

----------
Study the reported IC50 values for Tyrosine-protein kinase JAK1 (Homo sapiens) given below; they originate from different publications.

In the examples that follow, each entry is paired with its recorded IC50.
INSERT INTO results (compound, target_system, measured_endpoint, recorded_result) VALUES
  ('Nc1cc2ccc1-c1ccnc(n1)Nc1ccc(OCC3CCCOC3)c(c1)COCCCCNC2=O (stereo not shown)', 'Tyrosine-protein kinase JAK1 (Homo sapiens)', 'IC50', '101 to 1000 nM'),
  ('N#CCC1(n2ccc(-c3ncnc4[nH]ccc34)c2)CN(C2CCN(C(=O)c3cc(F)ccc3C(F)(F)F)CC2)C1', 'Tyrosine-protein kinase JAK1 (Homo sapiens)', 'IC50', '5 to 20 nM'),
  ('CC(C)=C(C)C(=O)Nc1cccc2c(-c3ccnc(NC(=O)C4CC4)c3)c[nH]c12', 'Tyrosine-protein kinase JAK1 (Homo sapiens)', 'IC50', '100 to 1000 nM'),
  ('N#CCC1(n2cc(-c3ncnc4[nH]ccc34)cn2)CN(C2CCN(C(=O)c3ccccc3)CC2)C1', 'Tyrosine-protein kinase JAK1 (Homo sapiens)', 'IC50', '≤ 5 nM'),
  ('CS(=O)(=O)c1cnc(-c2cnc3[nH]ccc3c2N[C@@H]2CCCN(C(=O)CC#N)C2)o1', 'Tyrosine-protein kinase JAK1 (Homo sapiens)', 'IC50', '≤ 10 nM'),
  ('Cc1cc2ccc1-c1ccnc(n1)Nc1ccc(N3CCOCC3)c(c1)COCCCCNC2=O', 'Tyrosine-protein kinase JAK1 (Homo sapiens)', 'IC50', '1000 to 10000 nM');

With those in mind, consider the next compound.
In plain terms, CN(c1ccc(O)cc1CNc1nc(-c2cc(F)c(O)cc2CC(F)(F)F)nc2[nH]nc(-c3nnc(C4CCN(C(N)=O)CC4)[nH]3)c12)S(C)(=O)=O has a documented IC50 of 4.1 nM

----------
Study the reported pIC50 values for Tyrosine-protein kinase JAK1 (Homo sapiens, UniProt P23458) given below; they originate from different publications.
pIC50: −log10 of the molar value.

In the examples that follow, each entry is paired with its recorded pIC50.
INSERT INTO measurements (smiles_input, recorded_result) VALUES
  ('CNC(=O)c1n[nH]c2cc(-c3cc(F)c(O)cc3CC(F)(F)F)nc(NCc3nccnc3N(C)S(=O)(=O)c3ccccc3)c12', 7.59),
  ('CC(C)c1nc2cnc3ccsc3c2n1[C@H]1CC[C@H](CC#N)CC1', '≥ 7.00'),
  ('CN(c1ncnc2[nH]ccc12)C1CCC2(CC1)CCN(C(=O)Nc1ncc(Cl)s1)CC2', '6.00 to 7.00');

With those in mind, consider the next compound.
// compound CNC(=O)c1cc2ccc1C(=O)NCCCCCNc1nc(ncc1C)Nc1cc-2cnc1F , assay Tyrosine-protein kinase JAK1 (Homo sapiens, UniProt P23458), pIC50 value: 6.00 to 7.00

----------
Study the reported IC50 values for Tyrosine-protein kinase JAK1 (Homo sapiens, UniProt P23458) given below; they originate from different publications.

In the examples that follow, each entry is paired with its recorded IC50.
INSERT INTO measurements (compound, recorded_result) VALUES
  ('CCOC(=O)c1cnc2[nH]ccc2c1NC1CCCC(CCC#N)C1 (centres unmarked)', '≤ 10 nM'),
  ('NC(=O)c1cnc(Nc2ccc3c(c2)NC[C@H](O)CO3)nc1NC12CC3CC(CC(O)(C3)C1)C2', '< 10 nM'),
  ('N#CCC1(n2cc(-c3ncnc4[nH]ccc34)cn2)CN(C2CCN(C(=O)c3ccc(O)c(F)c3)CC2)C1', '≤ 5 nM'),
  ('N#CCC1(n2cc(-c3ncnc4[nH]ccc34)cn2)CN(C2CCN(C(=O)c3csc4ccccc34)CC2)C1', '≤ 5 nM'),
  ('N#CC[C@H]1CC[C@H](n2c(C3CC3)nc3cnc4ccsc4c32)CC1', '≤ 100 nM');

// compound CCNC(=O)C[C@H]1CC[C@H](n2c([C@@H](C)O)nc3cnc4ccsc4c32)CC1 , assay Tyrosine-protein kinase JAK1 (Homo sapiens, UniProt P23458), IC50 value: ≤ 1000 nM

// compound Cc1cc(Nc2ncc(C)c(N3CC(CC#N)(NC(=O)NCC(F)(F)F)C3)n2)sn1 , assay Tyrosine-protein kinase JAK1 (Homo sapiens, UniProt P23458), IC50 value: < 20 nM

// compound N#C[C@H]1CC[C@H](n2c(CO)nc3cnc4ccoc4c32)CC1 , assay Tyrosine-protein kinase JAK1 (Homo sapiens, UniProt P23458), IC50 value: 100 to 1000 nM

// compound CCC(=O)Nc1cccc(-c2cnc3ccccc3n2)c1 , assay Tyrosine-protein kinase JAK1 (Homo sapiens, UniProt P23458), IC50 value: > 50000 nM

// compound CN(c1ncnc2[nH]ccc12)[C@H]1C[C@@H]2CN(C(=O)[C@H](O)CO)C[C@@H]2C1 , assay Tyrosine-protein kinase JAK1 (Homo sapiens, UniProt P23458), IC50 value: 131 nM

// compound CN(c1ncnc2[nH]ccc12)N1CCCC(N2CCCC2=O)C1 (centres unmarked) , assay Tyrosine-protein kinase JAK1 (Homo sapiens, UniProt P23458), IC50 value: > 1000 nM
